target: UniProt:P02768; assay: Protein binding in human serum albumin assessed as fraction bound at 53 nM incubated for 1 hrs by ultracentrifugation method; assay type: ADME, cell-free; settings: read-out: PPB (converted)
Sequence (P02768 whole entry): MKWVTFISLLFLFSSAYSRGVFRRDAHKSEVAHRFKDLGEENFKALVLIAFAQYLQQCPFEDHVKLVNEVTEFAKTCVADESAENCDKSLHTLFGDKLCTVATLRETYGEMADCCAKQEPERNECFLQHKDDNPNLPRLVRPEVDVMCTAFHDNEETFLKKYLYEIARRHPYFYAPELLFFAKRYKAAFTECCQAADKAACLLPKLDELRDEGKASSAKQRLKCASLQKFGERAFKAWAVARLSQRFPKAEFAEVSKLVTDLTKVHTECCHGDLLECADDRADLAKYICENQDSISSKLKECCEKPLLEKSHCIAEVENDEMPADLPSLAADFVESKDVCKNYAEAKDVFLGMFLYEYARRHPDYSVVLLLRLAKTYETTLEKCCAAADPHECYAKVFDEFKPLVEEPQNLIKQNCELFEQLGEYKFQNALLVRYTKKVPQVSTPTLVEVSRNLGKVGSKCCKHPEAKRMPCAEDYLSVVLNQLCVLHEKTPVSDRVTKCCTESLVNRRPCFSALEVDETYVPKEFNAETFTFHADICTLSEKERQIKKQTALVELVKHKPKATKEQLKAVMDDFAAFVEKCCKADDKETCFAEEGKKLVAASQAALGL
measurementLabel: fraction unbound at 1 h, 0.053 µM

Look over these answered cases.
C=C(C)[C@@H]1CC[C@]2(NCC[C@]3(O)CC[C@@H](S(C)(=O)=O)CC3)CC[C@]3(C)[C@H](CC[C@@H]4[C@@]5(C)CC=C(C6=CC[C@](CF)(C(=O)O)CC6)C(C)(C)[C@@H]5CC[C@]43C)[C@@H]12
0.11
C=C(C)[C@@H]1CC[C@]2(NCC[C@]3(O)CC[C@](C)(O)CC3)CC[C@]3(C)[C@H](CC[C@@H]4[C@@]5(C)CC=C(C6=CC[C@](CF)(C(=O)O)CC6)C(C)(C)[C@@H]5CC[C@]43C)[C@@H]12
0.11
C=C(C)[C@@H]1CC[C@]2(NCCC3(O)COC3)CC[C@]3(C)[C@H](CC[C@@H]4[C@@]5(C)CC=C(C6=CC[C@](CF)(C(=O)O)CC6)C(C)(C)[C@@H]5CC[C@]43C)[C@@H]12
0.12

Record lookup: for UniProt:P02768, what fraction unbound at 1 h, 0.053 µM belongs to C=C(C)[C@@H]1CC[C@]2(NCCN3CCS(=O)(=O)CC3)CC[C@]3(C)[C@H](CC[C@@H]4[C@@]5(C)CC=C(C6=CC[C@@](CF)(C(=O)O)CC6)C(C)(C)[C@@H]5CC[C@]43C)[C@@H]12 ? 0.14

* * *

experiment: Clearance in Beagle dog at 1 mg/kg, iv by LC-MS/MS analysis; assay type: ADME, organism-based, Canis lupus familiaris; conditions: in vivo
measurementLabel: clearance
Note to self: number, then unit, no commentary.

clearance lookup needed for C=C(C)[C@@H]1CC[C@]2(NCC[C@]3(O)CC[C@@H](S(C)(=O)=O)CC3)CC[C@]3(C)[C@H](CC[C@@H]4[C@@]5(C)CC=C(C6=CC[C@](CF)(C(=O)O)CC6)C(C)(C)[C@@H]5CC[C@]43C)[C@@H]12 , thanks. 0.38 mL/min/kg

* * *

Entries annotated with measured solubility
assay: Solubility of the compound in FeSSIF at pH 5.0; type: ADME

C=C(C)[C@@H]1CC[C@]2(NCC[C@]3(O)CC[C@](C)(O)CC3)CC[C@]3(C)[C@H](CC[C@@H]4[C@@]5(C)CC=C(C6=CC[C@](CF)(C(=O)O)CC6)C(C)(C)[C@@H]5CC[C@]43C)[C@@H]12
> 480 µM

solubility lookup needed for C=C(C)[C@@H]1CC[C@]2(NCCN3CCS(=O)(=O)CC3)CC[C@]3(C)[C@H](CC[C@@H]4[C@@]5(C)CC=C(C6=CC[C@@](CF)(C(=O)O)CC6)C(C)(C)[C@@H]5CC[C@]43C)[C@@H]12.Cl.Cl , thanks. 800 µM

Query C=C(C)[C@@H]1CC[C@]2(NCC[C@]3(O)CC[C@@H](S(C)(=O)=O)CC3)CC[C@]3(C)[C@H](CC[C@@H]4[C@@]5(C)CC=C(C6=CC[C@](CF)(C(=O)O)CC6)C(C)(C)[C@@H]5CC[C@]43C)[C@@H]12 next > 700 µM

Query C=C(C)[C@@H]1CC[C@]2(NCCC3(O)COC3)CC[C@]3(C)[C@H](CC[C@@H]4[C@@]5(C)CC=C(C6=CC[C@](CF)(C(=O)O)CC6)C(C)(C)[C@@H]5CC[C@]43C)[C@@H]12 next 32 µM

* * *

assay: Cmax in Beagle dog at 5 mg/kg, po administered as solution in 98% citrate buffer/2% sulfobutylether-beta-cyclodextrin by LC-MS/MS analysis; type: ADME, organism-based, Canis lupus familiaris; parameters: dose 5 mg/kg, route po; conditions: in vivo
measurementLabel: Cmax (nM)
Return type: number; implicit unit nM.

Cmax lookup needed for C=C(C)[C@@H]1CC[C@]2(NCC[C@]3(O)CC[C@@H](S(C)(=O)=O)CC3)CC[C@]3(C)[C@H](CC[C@@H]4[C@@]5(C)CC=C(C6=CC[C@](CF)(C(=O)O)CC6)C(C)(C)[C@@H]5CC[C@]43C)[C@@H]12 , thanks. 1610

* * *

Entries annotated with measured Vd
test: Volume of distribution at steady state in Sprague-Dawley rat at 1 mg/kg, iv by LC-MS/MS analysis; type: ADME, organism-based; settings: in vivo, read-out: Vdss
Return type: number; implicit unit L/kg.

Look over these answered cases.
C=C(C)[C@@H]1CC[C@]2(NCC[C@]3(O)CC[C@@H](S(C)(=O)=O)CC3)CC[C@]3(C)[C@H](CC[C@@H]4[C@@]5(C)CC=C(C6=CC[C@](CF)(C(=O)O)CC6)C(C)(C)[C@@H]5CC[C@]43C)[C@@H]12
0.8
C=C(C)[C@@H]1CC[C@]2(NCCN3CCS(=O)(=O)CC3)CC[C@]3(C)[C@H](CC[C@@H]4[C@@]5(C)CC=C(C6=CC[C@@](CF)(C(=O)O)CC6)C(C)(C)[C@@H]5CC[C@]43C)[C@@H]12
1.8
C=C(C)[C@@H]1CC[C@]2(NCC[C@]3(O)CC[C@](C)(O)CC3)CC[C@]3(C)[C@H](CC[C@@H]4[C@@]5(C)CC=C(C6=CC[C@](CF)(C(=O)O)CC6)C(C)(C)[C@@H]5CC[C@]43C)[C@@H]12
0.8

Shifting focus to the compound that follows.
Vd lookup needed for C=C(C)[C@@H]1CC[C@]2(NCCC3(O)COC3)CC[C@]3(C)[C@H](CC[C@@H]4[C@@]5(C)CC=C(C6=CC[C@](CF)(C(=O)O)CC6)C(C)(C)[C@@H]5CC[C@]43C)[C@@H]12 , thanks. 1

* * *

Entries annotated with measured Cmax
assay: Cmax in Sprague-Dawley rat at 5 mg/kg, po by LC-MS/MS analysis; format: ADME, organism-based; design: dose 5 mg/kg, route po; conditions: in vivo
Return type: number; implicit unit nM.

Look over these answered cases.
C=C(C)[C@@H]1CC[C@]2(NCC[C@]3(O)CC[C@@H](S(C)(=O)=O)CC3)CC[C@]3(C)[C@H](CC[C@@H]4[C@@]5(C)CC=C(C6=CC[C@](CF)(C(=O)O)CC6)C(C)(C)[C@@H]5CC[C@]43C)[C@@H]12
830
C=C(C)[C@@H]1CC[C@]2(NCC[C@]3(O)CC[C@](C)(O)CC3)CC[C@]3(C)[C@H](CC[C@@H]4[C@@]5(C)CC=C(C6=CC[C@](CF)(C(=O)O)CC6)C(C)(C)[C@@H]5CC[C@]43C)[C@@H]12
720

Shifting focus to the molecule that follows.
Cmax lookup needed for C=C(C)[C@@H]1CC[C@]2(NCCC3(O)COC3)CC[C@]3(C)[C@H](CC[C@@H]4[C@@]5(C)CC=C(C6=CC[C@](CF)(C(=O)O)CC6)C(C)(C)[C@@H]5CC[C@]43C)[C@@H]12 , thanks. 3860

* * *

test: Metabolic stability in rat liver microsomes assessed as half life at 0.5 uM in presence of NADPH by LC-MS/MS analysis; assay type: ADME, Microsome
Entries annotated with measured half-life at 0.5 µM
Return type: number; implicit unit h.

half-life at 0.5 µM lookup needed for C=C(C)[C@@H]1CC[C@]2(NCCN3CCS(=O)(=O)CC3)CC[C@]3(C)[C@H](CC[C@@H]4[C@@]5(C)CC=C(C6=CC[C@@](CF)(C(=O)O)CC6)C(C)(C)[C@@H]5CC[C@]43C)[C@@H]12 , thanks. 1.45

Query C=C(C)[C@@H]1CC[C@]2(NCC[C@]3(O)CC[C@@H](S(C)(=O)=O)CC3)CC[C@]3(C)[C@H](CC[C@@H]4[C@@]5(C)CC=C(C6=CC[C@](CF)(C(=O)O)CC6)C(C)(C)[C@@H]5CC[C@]43C)[C@@H]12 next 1.42

Query C=C(C)[C@@H]1CC[C@]2(NCCC3(O)COC3)CC[C@]3(C)[C@H](CC[C@@H]4[C@@]5(C)CC=C(C6=CC[C@](CF)(C(=O)O)CC6)C(C)(C)[C@@H]5CC[C@]43C)[C@@H]12 next 1.33

* * *

assay: Half life in Sprague-Dawley rat at 1 mg/kg, iv by LC-MS/MS analysis; format: ADME, organism-based; settings: in vivo
measurementLabel: half-life (min)
Return type: number; implicit unit min.

Look over these answered cases.
C=C(C)[C@@H]1CC[C@]2(NCCC3(O)COC3)CC[C@]3(C)[C@H](CC[C@@H]4[C@@]5(C)CC=C(C6=CC[C@](CF)(C(=O)O)CC6)C(C)(C)[C@@H]5CC[C@]43C)[C@@H]12
216
C=C(C)[C@@H]1CC[C@]2(NCC[C@]3(O)CC[C@@H](S(C)(=O)=O)CC3)CC[C@]3(C)[C@H](CC[C@@H]4[C@@]5(C)CC=C(C6=CC[C@](CF)(C(=O)O)CC6)C(C)(C)[C@@H]5CC[C@]43C)[C@@H]12
252

Shifting focus to the compound that follows.
half-life lookup needed for C=C(C)[C@@H]1CC[C@]2(NCC[C@]3(O)CC[C@](C)(O)CC3)CC[C@]3(C)[C@H](CC[C@@H]4[C@@]5(C)CC=C(C6=CC[C@](CF)(C(=O)O)CC6)C(C)(C)[C@@H]5CC[C@]43C)[C@@H]12 , thanks. 234
